test.system: T1, human EphA10 (Homo sapiens, UniProt Q5JZY3)
T1 construct: a protein of the extracellular region of each human Eph receptor fused with the SEAP protein and the His tag; made in house; host or cells: Expi293F cells (culture supernatant)
T1 sequence (Q5JZY3 34-565 limits assumed): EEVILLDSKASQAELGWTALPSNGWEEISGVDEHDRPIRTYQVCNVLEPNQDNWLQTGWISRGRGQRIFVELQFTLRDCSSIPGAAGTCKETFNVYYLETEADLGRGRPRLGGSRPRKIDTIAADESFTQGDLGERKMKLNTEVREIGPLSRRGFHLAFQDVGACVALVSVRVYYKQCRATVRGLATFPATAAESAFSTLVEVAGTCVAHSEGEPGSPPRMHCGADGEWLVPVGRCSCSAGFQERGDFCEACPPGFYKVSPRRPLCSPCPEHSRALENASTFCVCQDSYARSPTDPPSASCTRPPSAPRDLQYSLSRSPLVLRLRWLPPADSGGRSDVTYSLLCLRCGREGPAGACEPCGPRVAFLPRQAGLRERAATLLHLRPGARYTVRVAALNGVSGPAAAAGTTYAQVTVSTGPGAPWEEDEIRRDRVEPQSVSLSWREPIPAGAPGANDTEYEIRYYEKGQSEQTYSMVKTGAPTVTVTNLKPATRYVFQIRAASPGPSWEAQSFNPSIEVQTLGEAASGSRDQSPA
test.description: Selectivity ELISA of humanized antibodies for human Eph receptor
Assay type: binding
experimental.context: coated protein 1 nM
property.measured: hEphA10-SEAP-: absorbance at 450 nm, percentage with respect to hEphA4-SEAP-His as 100%

Memo: 143 (antibody, V domains shown, synthetic humanized antibody heavy chain variable region sequence; synthetic humanized antibody light chain variable region sequence) VH: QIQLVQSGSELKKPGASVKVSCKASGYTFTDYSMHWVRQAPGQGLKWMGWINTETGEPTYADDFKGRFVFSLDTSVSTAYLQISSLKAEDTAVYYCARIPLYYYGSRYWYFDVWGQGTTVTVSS VL: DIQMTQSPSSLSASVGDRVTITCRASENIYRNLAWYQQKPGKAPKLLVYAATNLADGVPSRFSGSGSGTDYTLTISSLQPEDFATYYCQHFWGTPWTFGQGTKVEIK , reported hEphA10-SEAP-: absorbance at 450 nm, percentage with respect to hEphA4-SEAP-His as 100%: 5.2%
